Where these numbers come from: patent US11203591B2

The following compounds are listed with their measured IC50 values.
- Tested On: human HPK1 (MAP4K1) (Homo sapiens (Human))
- Protocol Description: HPK1 IC50 Assay (TR-FRET peptide phosphorylation)
- Assay type: biochemical
- Settings: recombinant HPK1 kinase domain 0.15 nM, 10 μM ATP, 1 μM STK S1 peptide; geometric mean of multiple experiments

{"Compound": "Cc1cc(F)c(Nc2nc(-c3ccc4c(c3)N([C@H]3C[C@@H](N5CCCCC5)C3)C(=O)C43CCOCC3)cc3ncn(C(C)C)c23)cc1C(=O)NC(C)C [Example 125]", "IC50 / nM": 0.2}
{"Compound": "CCc1ccc(Nc2nc(-c3ccc4c(c3)N([C@H]3C[C@@H](N5CCCCC5)C3)C(=O)C4(C)C)cc3ncn(C(C)C)c23)cc1C(=O)NC [Example 143]", "IC50 / nM": 0.06}
{"Compound": "Cc1ccc(Nc2nc(-c3ccc4c(c3)N([C@H]3C[C@@H](N5CCCCC5)C3)C(=O)C4(C)C)cc3ncn(C(C)C)c23)cc1C(=O)N[C@@H](C)CF [Example 29]", "IC50 / nM": 0.1}
{"Compound": "CNC(=O)c1cc(Nc2nc(-c3ccc4c(c3)N([C@H]3C[C@@H](N[C@@H]5CCOC[C@@H]5C)C3)C(=O)C4(C)C)cc3ncn(C(C)C)c23)ccc1C [Example 12]", "IC50 / nM": 0.09}
{"Compound": "CC[C@H](C)n1cnc2cc(-c3ccc4c(c3)N([C@H]3C[C@@H](N5CCC[C@@H](F)C5)C3)C(=O)C4(C)C)nc(Nc3cc(C(=O)NC)c(C)cc3F)c21 [Example 113]", "IC50 / nM": 0.1}

* * *

The following molecules are listed with their measured IC50 values.
- Tested On: human HPK1 (MAP4K1) (Homo sapiens (Human), UniProt Q92918)
- Sequence (Q92918 17-274): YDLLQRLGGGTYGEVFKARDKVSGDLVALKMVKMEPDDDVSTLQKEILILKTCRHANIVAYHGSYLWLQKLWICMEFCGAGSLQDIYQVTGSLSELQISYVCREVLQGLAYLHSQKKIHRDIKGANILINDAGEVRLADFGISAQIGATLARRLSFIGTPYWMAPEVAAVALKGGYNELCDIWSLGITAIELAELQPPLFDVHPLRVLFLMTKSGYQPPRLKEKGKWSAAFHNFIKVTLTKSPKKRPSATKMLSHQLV
- Protocol Description: HPK1 IC50 Assay (TR-FRET peptide phosphorylation)
- Assay type: biochemical
- Settings: recombinant HPK1 kinase domain 0.15 nM, 10 μM ATP, 1 μM STK S1 peptide; geometric mean of multiple experiments
Observation Type: IC50 (nM)

{"Molecule": "Cc1c(C(=O)NC2(C(F)F)CC2)cc(Nc2nc(-c3ccc4c(c3)N([C@H]3C[C@@](C)(N5CCCCC5)C3)C(=O)C4(C)C)cc3ncn(C(C)C)c23)c(F)c1F [Example 236]", "Observation Type": "IC50", "Unit Tag": "nM", "Measured Number": 0.07}
{"Molecule": "CCC1(CC)C(=O)N([C@H]2C[C@@H](N3CCCCC3)C2)c2cc(-c3cc4ncn(C(C)C)c4c(Nc4ccc(C)c(C(=O)NC)c4)n3)ccc21 [Example 45]", "Observation Type": "IC50", "Unit Tag": "nM", "Measured Number": 0.1}
{"Molecule": "CNC(=O)c1cc(Nc2nc(-c3ccc4c(c3)N([C@H]3C[C@@H](N5CCOCC5)C3)C(=O)C4(C)C)cc3ncn(C(C)C)c23)ccc1C [Example 39]", "Observation Type": "IC50", "Unit Tag": "nM", "Measured Number": 0.1}

* * *

The following molecules are listed with their measured pIC50 values.
- Tested On: human HPK1 (MAP4K1) (Homo sapiens (Human), UniProt Q92918)
- Protocol Description: HPK1 IC50 Assay (TR-FRET peptide phosphorylation)
- Format: biochemical
- Settings: recombinant HPK1 kinase domain 0.15 nM, 10 μM ATP, 1 μM STK S1 peptide; geometric mean of multiple experiments
pIC50: −log10 of the molar value.

{"Molecule": "Cc1c(C(=O)NC2(C(F)F)CC2)cc(Nc2nc(-c3cnc4c(c3)N([C@H]3C[C@@](C)(N5CC6CCC6C5)C3)C(=O)C4(C)C)cc3ncn(C(C)C)c23)c(F)c1F (some centres unmarked)", "Tested On": "human HPK1 (MAP4K1) (Homo sapiens (Human), UniProt Q92918)", "pIC50": 10.10}
{"Molecule": "Cc1c(C(=O)NC2(C(F)F)CC2)cc(Nc2nc(-c3cnc4c(c3)N([C@H]3C[C@@](C)(N5CC6CCC(C5)O6)C3)C(=O)C4(C)C)cc3ncn(C(C)C)c23)c(F)c1F", "Tested On": "human HPK1 (MAP4K1) (Homo sapiens (Human), UniProt Q92918)", "pIC50": 9.52}
{"Molecule": "CNC(=O)c1cc(Nc2nc(-c3ccc4c(c3)N([C@H]3C[C@@H](NCC(C)(C)O)C3)C(=O)C4(C)C)cc3ncn(C(C)C)c23)c(F)cc1C", "Tested On": "human HPK1 (MAP4K1) (Homo sapiens (Human), UniProt Q92918)", "pIC50": 10.00}
{"Molecule": "Cc1ccc(Nc2nc(-c3ccc4c(c3)N([C@H]3C[C@@H](N5CCCCC5)C3)C(=O)C4(C)C)cc3ncn(C(C)C)c23)cc1C(=O)NCC(F)F", "Tested On": "human HPK1 (MAP4K1) (Homo sapiens (Human), UniProt Q92918)", "pIC50": 10.30}
{"Molecule": "CC(=O)N1CCC2(CC1)C(=O)N([C@H]1C[C@@H](N3CCCCC3)C1)c1cc(-c3cc4ncn(C(C)C)c4c(Nc4ccc(C)c(C(=O)NC5CC5)c4)n3)ccc12", "Tested On": "human HPK1 (MAP4K1) (Homo sapiens (Human), UniProt Q92918)", "pIC50": 10.22}

* * *

The following molecules are listed with their measured pIC50 values.
- Tested On: human HPK1 (MAP4K1) (Homo sapiens (Human), UniProt Q92918)
- Protocol Description: HPK1 IC50 Assay (TR-FRET peptide phosphorylation)
- Format: biochemical
- Settings: recombinant HPK1 kinase domain 0.15 nM, 10 μM ATP, 1 μM STK S1 peptide; geometric mean of multiple experiments
pIC50: −log10 of the molar value.

{"Molecule": "CC(=O)N1CCC2(CC1)C(=O)N([C@H]1C[C@@H](N3CCCCC3)C1)c1cc(-c3cc4ncn(C(C)C)c4c(Nc4cc(C(=O)NC(C)C)c(C)cc4F)n3)ccc12 [Example 129]", "pIC50": 9.70}
{"Molecule": "CC(C)n1cnc2cc(-c3cnc4c(c3)N([C@H]3C[C@@](C)(N5CCOCC5)C3)C(=O)C4(C)C)nc(Nc3cc(C(=O)NC4(C(F)F)CC4)c(Cl)c(F)c3F)c21 [Example 199]", "pIC50": 10.00}
{"Molecule": "CNC(=O)c1cc(Nc2nc(-c3ccc4c(c3)N([C@H]3C[C@@H](N5CCCC6(C5)CC6(F)F)C3)C(=O)C43CCN(C(C)=O)CC3)cc3ncn(C4CC4)c23)ccc1C (stereo partly drawn) [Example 163]", "pIC50": 10.00}

* * *

The following compounds are listed with their measured IC50 values.
- Tested On: UniProt:Q92918
- Protocol Description: HPK1 IC50 Assay (TR-FRET peptide phosphorylation)
- Assay type: biochemical
- Settings: 0.15 nM HPK1, 10 μM ATP, 1 μM STK S1 peptide substrate; geometric mean

{"Compound Structure": "CCNC(=O)c1cc(Nc2nc(-c3cnc4c(c3)N([C@H]3C[C@@](C)(N5CCCC6(CC6)C5)C3)C(=O)C4(C)C)cc3ncn(C(C)C)c23)c(F)c(F)c1C", "Tested On": "UniProt:Q92918", "IC50": "0.1 nM"}
{"Compound Structure": "CC(C)n1cnc2cc(-c3ccc4c(c3)N([C@H]3C[C@@](C)(N5CCCCC5)C3)C(=O)C4(C)C)nc(Nc3cc(C(=O)NC4(CF)CC4)c(Cl)c(F)c3F)c21", "Tested On": "UniProt:Q92918", "IC50": "0.07 nM"}
{"Compound Structure": "CC(C)n1cnc2cc(-c3ccc4c(c3)N([C@H]3C[C@@](C)(N5CCCCC5)C3)C(=O)C4(C)C)nc(Nc3cc(C(=O)NC4(C(F)F)CC4)c(Cl)cc3F)c21", "Tested On": "UniProt:Q92918", "IC50": "0.08 nM"}
{"Compound Structure": "CCNC(=O)c1cc(Nc2nc(-c3cc4c(nc3F)C(C)(C)C(=O)N4[C@H]3C[C@@](C)(N4CCCCC4)C3)cc3ncn(C(C)C)c23)c(F)c(F)c1C", "Tested On": "UniProt:Q92918", "IC50": "0.06 nM"}
{"Compound Structure": "CCNC(=O)c1cc(Nc2nc(-c3ccc4c(c3)N([C@H]3C[C@@](C)(N5CCCCC5)C3)C(=O)C4(C)C)cc3ncn(C(C)C)c23)c(F)c(F)c1Cl", "Tested On": "UniProt:Q92918", "IC50": "0.08 nM"}
{"Compound Structure": "CCNC(=O)c1cc(Nc2nc(-c3cc4c(nc3F)C(C)(C)C(=O)N4[C@H]3C[C@@](C)(N4CCCCC4)C3)cc3ncn(C(C)C)c23)c(F)c(F)c1Cl", "Tested On": "UniProt:Q92918", "IC50": "0.07 nM"}
{"Compound Structure": "Cc1c(C(=O)NCC(F)F)cc(Nc2nc(-c3cnc4c(c3)N([C@H]3C[C@@](C)(N5CCCC6(CC6)C5)C3)C(=O)C4(C)C)cc3ncn(C(C)C)c23)c(F)c1F", "Tested On": "UniProt:Q92918", "IC50": "0.1 nM"}
{"Compound Structure": "Cc1c(C(=O)NCC(F)F)cc(Nc2nc(-c3ccc4c(c3)N([C@H]3C[C@@](C)(N5CCCCC5)C3)C(=O)C4(C)C)cc3ncn(C(C)C)c23)c(F)c1F", "Tested On": "UniProt:Q92918", "IC50": "0.03 nM"}
{"Compound Structure": "CC(C)n1cnc2cc(-c3cnc4c(c3)N([C@H]3C[C@@](C)(N5CCCC6(CC6)C5)C3)C(=O)C4(C)C)nc(Nc3cc(C(=O)NCC(F)F)c(Cl)c(F)c3F)c21", "Tested On": "UniProt:Q92918", "IC50": "0.1 nM"}
{"Compound Structure": "CNC(=O)c1cc(Nc2nc(-c3cnc4c(c3)N([C@H]3C[C@@](C)(N5CCCCC5)C3)C(=O)C4(C)C)cc3ncn(C(C)C)c23)c(F)c(F)c1Cl", "Tested On": "UniProt:Q92918", "IC50": "0.07 nM"}
{"Compound Structure": "CCNC(=O)c1cc(Nc2nc(-c3ccc4c(c3)N([C@H]3C[C@@](C)(N5CCCCC5)C3)C(=O)C4(C)C)cc3ncn(C(C)C)c23)c(F)cc1Cl", "Tested On": "UniProt:Q92918", "IC50": "0.07 nM"}
{"Compound Structure": "CC(C)n1cnc2cc(-c3ccc4c(c3)N([C@H]3C[C@@](C)(N5CCCCC5)C3)C(=O)C4(C)C)nc(Nc3cc(C(=O)NC4(CF)CC4)c(Cl)cc3F)c21", "Tested On": "UniProt:Q92918", "IC50": "0.05 nM"}
{"Compound Structure": "CCNC(=O)c1cc(Nc2nc(-c3ccc4c(c3)N([C@H]3C[C@@](C)(N5CCCCC5)C3)C(=O)C4(C)C)cc3ncn(C(C)C)c23)c(F)cc1C", "Tested On": "UniProt:Q92918", "IC50": "0.06 nM"}
{"Compound Structure": "CCNC(=O)c1cc(Nc2nc(-c3cc4c(nc3F)C(C)(C)C(=O)N4[C@H]3C[C@@](C)(N4CCCC5(CC5)C4)C3)cc3ncn(C(C)C)c23)c(F)c(F)c1C", "Tested On": "UniProt:Q92918", "IC50": "0.1 nM"}
{"Compound Structure": "CC(C)n1cnc2cc(-c3cc4c(nc3F)C(C)(C)C(=O)N4[C@H]3C[C@@](C)(N4CCCCC4)C3)nc(Nc3cc(C(=O)NCC(F)F)c(Cl)c(F)c3F)c21", "Tested On": "UniProt:Q92918", "IC50": "0.09 nM"}
{"Compound Structure": "CCNC(=O)c1cc(Nc2nc(-c3cc4c(nc3F)C(C)(C)C(=O)N4[C@H]3C[C@@](C)(N4CCCC5(CC5)C4)C3)cc3ncn(C(C)C)c23)c(F)c(F)c1Cl", "Tested On": "UniProt:Q92918", "IC50": "0.1 nM"}
{"Compound Structure": "CC(C)n1cnc2cc(-c3ccc4c(c3)N([C@H]3C[C@@](C)(N5CCCCC5)C3)C(=O)C4(C)C)nc(Nc3cc(C(=O)NCC(F)F)c(Cl)cc3F)c21", "Tested On": "UniProt:Q92918", "IC50": "0.07 nM"}
{"Compound Structure": "CC(C)n1cnc2cc(-c3cc4c(nc3F)C(C)(C)C(=O)N4[C@H]3C[C@@](C)(N4CCCCC4)C3)nc(Nc3cc(C(=O)NC4(C(F)F)CC4)c(Cl)c(F)c3F)c21", "Tested On": "UniProt:Q92918", "IC50": "0.08 nM"}
{"Compound Structure": "Cc1cc(F)c(Nc2nc(-c3ccc4c(c3)N([C@]3(C)C[C@H](N5CCCCC5)C3)C(=O)C4(C)C)cc3ncn(C(C)C)c23)cc1C(=O)NC1(C(F)F)CC1", "Tested On": "UniProt:Q92918", "IC50": "0.1 nM"}
{"Compound Structure": "CC(C)n1cnc2cc(-c3ccc4c(c3)N([C@]3(C)C[C@H](N5CCCCC5)C3)C(=O)C4(C)C)nc(Nc3cc(C(=O)NC4(C(F)F)CC4)c(Cl)c(F)c3F)c21", "Tested On": "UniProt:Q92918", "IC50": "0.1 nM"}
{"Compound Structure": "CCNC(=O)c1cc(Nc2nc(-c3cnc4c(c3)N([C@H]3C[C@@](C)(N5CCCCC5)C3)C(=O)C4(C)C)cc3ncn(C(C)C)c23)c(F)c(F)c1Cl", "Tested On": "UniProt:Q92918", "IC50": "0.1 nM"}
